Measured IC50 accompanies every entry in the list below.
- experimentalTarget: JAK3 (Homo sapiens)
- Construct: purchased Thermo fisher PV3855
- Sequence (P52333 781-1124 limits assumed): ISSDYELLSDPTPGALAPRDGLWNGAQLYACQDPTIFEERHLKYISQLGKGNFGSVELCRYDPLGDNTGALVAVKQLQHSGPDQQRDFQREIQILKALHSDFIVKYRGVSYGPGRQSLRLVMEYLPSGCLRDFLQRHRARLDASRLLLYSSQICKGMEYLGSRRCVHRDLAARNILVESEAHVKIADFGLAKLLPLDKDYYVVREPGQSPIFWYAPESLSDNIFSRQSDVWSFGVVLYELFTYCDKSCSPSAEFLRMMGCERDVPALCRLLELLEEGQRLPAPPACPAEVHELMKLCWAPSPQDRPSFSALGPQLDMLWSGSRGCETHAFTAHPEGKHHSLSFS
- measurementDescription: JAK3 biochemical assay (ADP-GLO Kinase Assay)
- testSettings: B*: testing performed in a first testing facility; read-out: JAK3 IC50 (nM) Relative, B*

Solved entries:
{"compound": "COc1cc2c(cc1Nc1ncc(Cl)c(-n3cc(C4(O)COC4)c4ccccc43)n1)CN(C)CC2", "IC50": "> 1000 nM"}
{"compound": "COc1cc2c(cc1Nc1ncc3c(n1)N(c1ccccc1P(C)(C)=O)CCO3)CN(C)CC2", "IC50": "> 1000 nM"}
{"compound": "COc1cc2c(cc1Nc1ncc(Cl)c(-n3cc(C(N)=O)c4ccccc43)n1)CN(C)CC2", "IC50": "500 to 1000 nM"}
{"compound": "COc1cc2c(cc1Nc1ncc(Cl)c(N3CC(C(=O)NO)c4ccccc43)n1)CN(C)CC2 (centres unmarked)", "IC50": "> 1000 nM"}
{"compound": "COc1cc2c(cc1Nc1ncc(Cl)c(N3CCc4ccc(Cl)cc43)n1)CN(C)CC2", "IC50": "> 1000 nM"}

Item under review: CCC(CC)COC(=O)Cc1cn(-c2nc(Nc3cc4c(cc3OC)CCN(C)C4)ncc2Cl)c2ccccc12 . Reported IC50?
> 1000 nM

Item under review: COc1cc2c(cc1Nc1ncc(Cl)c(N3CC(C)(CC(=O)O)c4cc(F)ccc43)n1)CN(C)CC2 (centres unmarked) . Reported IC50?
100 to 500 nM

Item under review: COc1cc2c(cc1Nc1ncc(Cl)c(N3CC(c4nn[nH]n4)c4ccccc43)n1)CN(C)CC2 (centres unmarked) . Reported IC50?
100 to 500 nM

Item under review: COc1cc2c(cc1Nc1ncc(Cl)c(N3CC(C(=O)O)C4(CCCCC4)C3)n1)CN(C)CC2 (centres unmarked) . Reported IC50?
> 1000 nM

Item under review: COc1cc2c(cc1Nc1ncc(Cl)c(-n3cc(CC(=O)O)c4cc(F)ccc43)n1)CN(C)CC2 . Reported IC50?
100 to 500 nM

Item under review: CCc1c[nH]c2ncc(-c3ccc(-c4ncco4)c(P(C)(C)=O)c3)cc12 . Reported IC50?
> 1000 nM

Item under review: COc1cc2c(cc1Nc1ncc(Cl)c(N3C[C@@](C)(C(=O)O)c4ccccc43)n1)CN(C)CC2 (single isomer, unassigned) . Reported IC50?
≤ 100 nM

Item under review: COc1cc2c(cc1Nc1ncc(Cl)c(N3CC(C(=O)O)c4ccccc43)n1)CN(C)CC2 (centres unmarked) [Example 32] . Reported IC50?
≤ 100 nM

Item under review: CCN1CCc2cc(OC)c(Nc3ncc(Cl)c(N4CC(C)(CC(=O)O)c5ccccc54)n3)cc2C1 (centres unmarked) . Reported IC50?
100 to 500 nM

Item under review: CCOC(=O)Cc1cn(-c2nc(Nc3cc4c(cc3OC)CCN(C)C4)ncc2Cl)c2ccccc12 . Reported IC50?
> 1000 nM

Item under review: COC(=O)C1CN(c2nc(Nc3cc4c(cc3OC)CCN(C)C4)ncc2Cl)c2ccccc21 (centres unmarked) . Reported IC50?
> 1000 nM

Item under review: COc1cc2c(cc1Nc1ncc(Cl)c(N3CCc4ccc(C(F)F)cc43)n1)CN(C)CC2 . Reported IC50?
> 1000 nM

Item under review: CCc1c[nH]c2ncc(-c3ccc(C(F)F)c(P(C)(C)=O)c3)cc12 . Reported IC50?
> 1000 nM

Item under review: COC(=O)C1CN(c2nc(Nc3cc4c(cc3OC)CCN(C)C4)ncc2C(F)F)c2ccccc21 (centres unmarked) . Reported IC50?
> 1000 nM

Item under review: COc1cc2c(cc1Nc1ncc(Cl)c(N3CC(P(C)(C)=O)c4ccccc43)n1)CN(C)CC2 (centres unmarked) . Reported IC50?
> 1000 nM
